System: HT-29
Assay: NCI tumour cell line growth inhibition, 48 h
Activity calls are given as the source filed them. Cut-off read from the data, not from the text of the source: active = GI50 up to about 1.1 µM and inactive = higher.
Collected GI50 values appear next to each entry.

C/C=C(\C)C(=O)OC1C2C(C)C(=O)OC2C(O)C(C)C2C=CC(=O)C21C (stereo unspecified)
15.2 µM (inactive)

Task: // Input: COc1cc(Oc2c(O)c(C)c(OC)c(C(C)=O)c2O)c(C(C)=O)c(O)c1C . Output its GI50 only.
Result: 71.8 µM (inactive)

Task: For O=C1NC2(CCCCC2)C2CCCCC=C12 (stereo unspecified) , write its GI50.
Result: > 100 µM (inactive)

Task: Supply GI50 value. Item: N#Cc1ccc(N2CCOCC2)cc1
Result: > 100 µM (inactive)

Task: Indicate its recorded GI50; the molecule in question is O=C1CCCC2=C1CC1=C(CCCC1=O)N2c1ccc(Cl)cc1
Result: > 100 µM (inactive)

Task: Fill in GI50 for record CC(C)OC(=O)C1=C2c3ncccc3C(=O)N2[C@@H](Cl)[C@@H](Cl)[C@@H]1Cl
Result: > 100 µM (inactive)

###

Test system: LXFL 529
Assay: NCI tumour cell line growth inhibition, 48 h
Activity calls are given as the source filed them. Cut-off read from the data, not from the text of the source: active = GI50 up to about 1.1 µM and inactive = higher.
Listed compounds paired with reported GI50

Examples with their reported GI50 follow.
[O-][S+]1[C@H](c2ccccc2)c2c(-c3ccccc3)sc(-c3ccccc3)c2[C@@H]1c1ccccc1 (stereo not given in full)
> 100 µM (inactive)
COc1ccc(/C=C2\CCC(CN3CCOCC3)C2=O)cc1 (stereo not given)
1.59 µM (inactive)
COc1cc(OC(C)=O)cc2c(OC(C)=O)ccc(OC(C)=O)c12
> 100 µM (inactive)
Cc1ccc(S(=O)(=O)C2=c3nc4ccccc4cc3=C3C(=O)c4ccccc4C(=O)C32)cc1 (stereo not given)
> 100 µM (inactive)
CCOc1ccc2c(c1)[n+]([O-])c(-c1ccc([N+](=O)[O-])cc1)c(N)[n+]2[O-]
> 100 µM (inactive)

Task: Given the compound COc1ccc(-c2oc(/C=N/NC(N)=S)c([N+](=O)[O-])c2-c2ccc(OC)c(OC)c2)cc1OC , write its reported GI50.
Result: 20.3 µM (inactive)

Task: Respond only with GI50 recorded for C[N+](C)=c1nc(N2CCOCC2)ss1
Result: > 100 µM (inactive)

Task: Specify reported GI50 for the compound shown: O=C(CC/C(CC(=O)c1ccc(Cl)cc1)=N/O)Nc1ccc(Cl)c(Cl)c1
Result: 80.7 µM (inactive)

Task: Supply measured GI50 of CCOC(=O)C(=O)Nc1c(C)cccc1C(C)(C)C in your reply.
Result: > 100 µM (inactive)

Task: Quote GI50 reported for COc1cc(Oc2c(O)c(C)c(OC)c(C(C)=O)c2O)c(C(C)=O)c(O)c1C please.
Result: 49.5 µM (inactive)

###

System: RXF 393
Assay: NCI tumour cell line growth inhibition, 48 h
Calls of active or inactive are those of the source. No stated cut-off is given here; in the data, active = GI50 up to about 1.1 µM and inactive = higher.
RESULT_TYPE: GI50

Task: Provide only the value of recorded GI50 for C[C@H]1S[C@H](c2c(Cl)cccc2Cl)N2Cc3ccccc3N=C12
Result: 14.1 µM (inactive)

Task: Provide one value: measured GI50 of CO[C@H]1ON=C(c2c(C)cc(C)cc2C)[C@@H]1C1(c2ccccc2)ON=C(c2c(C)cc(C)cc2C)O1 (some centres undefined)
Result: > 100 µM (inactive)

Task: Consider the compound Clc1ccc(CN2CCCN(Cc3ccc(Cl)cc3)C2c2cc3ccccc3c3ccccc23)cc1 and give its recorded GI50.
Result: 24.8 µM (inactive)

Task: Specify reported GI50 for the compound shown: CCOC(=O)/C(=C\Nc1c(C)n(C)n(-c2ccccc2)c1=O)C(=O)c1ccccc1
Result: > 100 µM (inactive)

###

System: HL-60
Test: NCI tumour cell line growth inhibition, 48 h
The source made the active and inactive calls. Rule as the data show it: active = GI50 up to about 1.1 µM and inactive = higher.
Listed next: entries and their corresponding GI50.

Cc1c2n(c3ccccc13)S(=O)(=O)c1ccccc1-2
> 100 µM (inactive)

Task: Assign GI50 to the following record: NC(CSC1(c2ccc(Cl)cc2)c2ccccc2-c2ccccc21)C(=O)O (stereo unspecified)
Result: 6.4 µM (inactive)

Task: Query GI50 for CC(=O)NC1C(O)C(O)C(CO)OC1n1nc(SCc2ccccc2)c(=O)[nH]c1=O (stereo unspecified)
Result: > 100 µM (inactive)

Task: Item O=C1Nc2ccc(Br)cc2/C1=N/N1C(=O)C(=O)N(C2CCCCC2)C1=S : provide GI50
Result: 2.16 µM (inactive)

Task: For the compound COC(=O)CC1CCN(C#N)CC1CC[N+](=O)[O-] (stereo unspecified) , give its measured GI50 value.
Result: > 100 µM (inactive)

Task: Answer with the recorded GI50 of O=c1c2cccnc2oc2c(Cl)cc(-c3nnn[nH]3)cc12 only.
Result: > 100 µM (inactive)

###

Test system: TK-10
Experiment: NCI tumour cell line growth inhibition, 48 h
Calls of active or inactive are those of the source. Rule as the data show it: active = GI50 up to about 1.1 µM and inactive = higher.
GI50 listing for selected compounds.

Answered cases to consult:
O=C(/C=C/c1ccccc1Br)c1ccccc1
2.17 µM (inactive)
CC(C)(C)OC(=O)C1C(=O)NC(=O)CC1C(OCc1ccccc1)C(OCc1ccccc1)C(COCc1ccccc1)OCc1ccccc1 (centres undefined)
> 100 µM (inactive)
N#CCc1ccccc1/C(C#N)=C1/OC(=N)C(c2ccccc2CC#N)C1=O (centres undefined)
> 100 µM (inactive)
O=C1CCCC2=C1CC1=C(CCCC1=O)N2c1ccc(Cl)cc1
> 100 µM (inactive)
CN(C)CCNC(=O)C1COc2cc(-c3cc(=O)c4ccccc4o3)ccc2O1 (centres undefined)
29.6 µM (inactive)
COc1ccc(CN(Cc2ccc(OC)cc2)C(=O)CC2(O)CCc3ccccc3C2)cc1 (centres undefined)
> 100 µM (inactive)
S=C(N/N=C\C=N/NC(=S)N1CCCCCC1)N1CCCCCC1
57.9 µM (inactive)
CC(=O)n1ccc2c(Cl)ncnc21
> 100 µM (inactive)
COc1cc2c(cc1OC)CN1CCCc3cc(OC)c(OC)cc3C1C2 (centres undefined)
51.4 µM (inactive)
Cn1c2ccccc2n2c3nc4ccccc4nc3c(C#N)c12
> 10 µM (inactive)

Task: Please report GI50 for the following compound: CC1=C(C#N)C2C(=C(C)N1)C(N)=Nc1ccccc12 (centres undefined)
Result: 46.8 µM (inactive)

Task: Please report the measured GI50 for N/C(=N\O)N/N=C/c1ccc(C(F)(F)F)cc1
Result: 23.9 µM (inactive)

###

Tested on: SNB-75
Assay: NCI tumour cell line growth inhibition, 48 h
Active and inactive are the calls of the source. Rule as the data show it: active = GI50 up to about 1.1 µM and inactive = higher.
Please reply with one of these outcomes: active, inactive

Examples with answers:
COC(=O)[C@@]12CN(C)[C@@H](C(C)(C)C)N1C(=O)OC2c1ccccc1 (some centres not stated)
inactive
Cn1c(=O)c2nc(N3CCCCC3)cnc2n(C)c1=O
inactive
O=C(Cn1c(=O)oc2ccccc21)N(c1ccccc1)c1ccccc1
inactive
N=C(N)N/N=C/c1oc(-c2ccc(S(=O)(=O)O)o2)c(-c2ccc(S(=O)(=O)O)o2)c1[N+](=O)[O-]
inactive
O=C1COc2cc(NC(=S)Nc3ccccc3)ccc2N1
inactive

Task: # lookup: test call for CN(CCCNC(=O)c1cc(-c2ccccc2)nc2ccccc12)CCCNC(=O)c1cc(-c2ccccc2)nc2ccccc12
Result: inactive

Task: Hello, I am checking results. What call was entered for Cc1ccccc1C(=O)Oc1ccc(OCc2ccccc2)cc1 ?
Result: inactive

###

Data export: log10 GI50 values recorded with HCT-15.
Units before log transform: µM; reported quantity: GI50; transform: log10.

COC1/C=C\C=C(/C)C(=O)NC2=CC(=O)C(N)=C(CC(C)CC(OC)C(O)C(C)C=C(C)C1OC(N)=O)C2=O (stereo not given)
-0.48
Fc1ccc(/N=N/N2CCCC2)cc1
1.40

Now consider the entry below.
Task: Please supply the value of reported log10 GI50 for the item Cc1c(C(=O)N2CCN(c3ccc([N+](=O)[O-])cc3)CC2)[n+]([O-])c2cc(Cl)c(Cl)cc2[n+]1[O-]
Result: 1.23

###

Test system: SF-295
Assay: NCI tumour cell line growth inhibition, 48 h
The source made the active and inactive calls. Cut-off read from the data, not from the text of the source: active = GI50 up to about 1.1 µM and inactive = higher.
RESULT_TYPE: GI50

Task: Return the recorded GI50 value; entry: Clc1ccc(CN2CCCN(Cc3ccc(Cl)cc3)C2c2cc3ccccc3c3ccccc23)cc1
Result: 52.2 µM (inactive)

Task: Answer with the recorded GI50 for the compound listed here: O=C(CSC(=S)N1CCCCC1)Nc1nc2c(s1)CCCC2
Result: 16.4 µM (inactive)

Task: Annotate the compound CC(C)=CC(O)C/C(C)=C/CC/C(C)=C/CCC1(C)C(CCCO)/C(=C(/C)C=O)CCC1(C)O (configuration not stated) with its measured GI50.
Result: 28.8 µM (inactive)

Task: Note GI50 for the compound shown: CCCCc1c2c(nc3c1CC/C(=C\c1ccc([N+](=O)[O-])cc1)C3=O)CCCC2
Result: 2.1 µM (inactive)

Data provenance is ChEMBL document CHEMBL1201862.
